Data provenance: the supplement of paper PMC10126150

# System: ATP;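 further: ATP exposure 15 min at 22 °C before imaging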
# assay info: switch fluorescence ratio, 500 uM ATP over buffer (Cy3 cluster intensity, sum of 5 cycles each) (fold (ratio)); higher = stronger signal-on switching upon ATP binding; sequences stand for … in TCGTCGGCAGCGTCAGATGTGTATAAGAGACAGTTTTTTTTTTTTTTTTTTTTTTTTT…TC
# particulars: aptamer strand: ATP DNA aptamer (quencher-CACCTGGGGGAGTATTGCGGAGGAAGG + anchor), 100 nM annealed; ATP concentration: 500 uM
Consider the following sequences; for each one, report its switch fluorescence ratio.
Numbers only.

Example results:
sequence code | switch fluorescence ratio
CGAATTTGTC | 1.02
TTATGGAAGA | 0.98
AATTCCGATA | 1.02
AGGTGCCGTG | 1.02
GGAAGGAATG | 0.966
TGATATAGCA | 1.03
CTAACCGGTA | 1.01
TTTTTCGGTT | 0.998
AGAGATGTGG | 0.958
CATATATTT | 0.975

Hi, could you look up switch fluorescence ratio for each item in my list?
1. CCTAGGGTTT
2. GCTCTTAGTG
3. TACTGACGGT
4. AGGAGTACCA

Result:
1. 1
2. 0.989
3. 1.4
4. 1.04

----------
# Tested on: ATP;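 further: ATP exposure 15 min at 22 °C before imaging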
# assay info: switch fluorescence ratio, 500 uM ATP over buffer (Cy3 cluster intensity, sum of 5 cycles each) (fold (ratio)); higher = stronger signal-on switching upon ATP binding; sequences stand for … in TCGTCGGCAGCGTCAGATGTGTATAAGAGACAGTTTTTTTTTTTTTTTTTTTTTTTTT…TC
# particulars: aptamer strand: ATP DNA aptamer (quencher-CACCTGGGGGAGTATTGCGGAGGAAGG + anchor), 100 nM annealed; ATP concentration: 500 uM
readout name: switch fluorescence ratio
One number for each entry.

sequence code | switch fluorescence ratio
TTGGAAAAAT | 1.05
TAATCAATGT | 0.994
CCGGCTTAGA | 1.14
TGATTTTTAT | 1.01

For every listed record, write down its switch fluorescence ratio.
1. TCGTCTGCGG
2. ACTTGTAGCT
3. TATTTTGGGC
4. GGGCTGTGTG
5. CAGCCCTAGG
6. TTGCTGCAAA
7. CTTTTCATTG
8. CTAGTGCTCG

Result:
[1.04, 1.02, 0.997, 1.02, 1.09, 1.1, 1.06, 0.971]

----------
# System: ATP;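 further: ATP exposure 15 min at 22 °C before imaging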
# assay info: switch fluorescence ratio, 500 uM ATP over buffer (Cy3 cluster intensity, sum of 5 cycles each) (fold (ratio)); higher = stronger signal-on switching upon ATP binding; sequences stand for … in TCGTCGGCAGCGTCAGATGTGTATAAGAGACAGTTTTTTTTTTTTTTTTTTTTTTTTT…TC
# particulars: aptamer strand: ATP DNA aptamer (quencher-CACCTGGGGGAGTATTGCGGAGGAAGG + anchor), 100 nM annealed; ATP concentration: 500 uM
Assign switch fluorescence ratio to each entry below.
Numbers only.

// known answers, use as guide
sequence code | reported value
TCAGGCTGTT | 0.968
GAATTAATCG | 0.988
GATTTTGGTG | 0.971

Please look at the items below and tell me switch fluorescence ratio for each one, in order.
1. AGGGTATGTT
2. GTTTGTCTTT
3. ATAAGTGGG
4. GTTGAATCTG
5. GGGTATGTAA

Result:
1: 0.968; 2: 1.02; 3: 0.983; 4: 1.26; 5: 1.01

Batch: switch fluorescence ratio for all items listed.
1. CTGATATGTA
2. AAGGACGCCA

Result:
0.969
1.05

Provide switch fluorescence ratio values for the following items, in order.
1. TGTTCTTTTT
2. AGAGTAAGTG
3. TGCGGGGCTT
4. TATCAGATTA
5. AATCGGATTG

Result:
0.993
0.962
0.997
0.998
1

Below is a list of sequences. For each, state its recorded switch fluorescence ratio.
1. TGGGGTTGTT
2. AGGAAACCCG
3. ATAGTATTGA
4. ATATTATTTC

Result:
0.985
0.994
0.969
1.01

Could you tell me switch fluorescence ratio for each of these sequences? They are listed below.
1. GCTCAACTAA
2. TGATGGGGCT
3. TTGTTCGGCC
4. TAAGGGCTGC

Result:
1.02
0.975
0.992
1.04

Please look at the items below and tell me switch fluorescence ratio for each one, in order.
1. GGGTTGTAGC
2. GTTCGAAAGG
3. CTTTGGCAGC
4. ATAAAGGTTG
5. GGATTGAGGT
6. TCGTTTTGCT
7. GTCGTGTCTG

Result:
1. 0.991
2. 1.02
3. 1.06
4. 0.993
5. 1.02
6. 0.981
7. 1

Hi team, please reply with switch fluorescence ratio for each item in this list.
1. GGTTGTGGGC
2. GTAGCGATAG
3. CCGAATGAGG
4. GCGTATATTA

Result:
[0.992, 4.13, 0.995, 0.998]

The following sequences each have a reported value; give each one's switch fluorescence ratio.
1. ATATGGTTGA
2. AATTCTATAG
3. TTCTGGGGTA
4. TGGGCTTCGT
5. TATGGATTAT
6. TTAGCGGCTG
7. TGAGGTGCGG
8. GCTTAATGTG

Result:
[0.964, 0.995, 0.988, 0.994, 1.02, 0.959, 0.996, 0.968]

Query: Lookup: switch fluorescence ratio / ATP / TACCAGCCGA
Result: 1.06
